- TARGET_OR_SYSTEM: T1, Cynomolgus/Rhesus macaque FOLR1 Protein, His Tag (ACRO, F01-C52H8) (cynomolgus, UniProt A0A2K5U044 25-233)
- T1 construct: also called cynomolgus FOLR1 protein; not shown: His tag
- T1 sequence (A0A2K5U044 entry or part of it): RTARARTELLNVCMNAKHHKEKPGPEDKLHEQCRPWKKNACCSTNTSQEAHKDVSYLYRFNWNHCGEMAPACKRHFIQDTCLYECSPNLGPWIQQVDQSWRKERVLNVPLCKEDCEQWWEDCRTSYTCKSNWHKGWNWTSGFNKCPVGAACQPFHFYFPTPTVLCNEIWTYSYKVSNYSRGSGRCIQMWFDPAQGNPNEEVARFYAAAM
- PROTOCOL_DESCRIPTION: ELISA, supernatant diluted 5x
PROPERTY_NAME: OD450
Give bare numbers.

BINDER	OD450
F131 (antibody, V domains shown, also called clone F131; F131 mAb) VH: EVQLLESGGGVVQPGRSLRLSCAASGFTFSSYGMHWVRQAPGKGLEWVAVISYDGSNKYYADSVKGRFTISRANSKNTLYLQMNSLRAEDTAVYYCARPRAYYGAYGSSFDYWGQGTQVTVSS VL: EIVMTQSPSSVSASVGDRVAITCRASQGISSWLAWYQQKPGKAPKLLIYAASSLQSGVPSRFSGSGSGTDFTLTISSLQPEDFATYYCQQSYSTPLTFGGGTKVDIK	1.27

Now turn to the next binder.
// query Complete the entry with OD450 for F40 (antibody, V domains shown, also called clone F40; anti-FOLR1 antibody F40) VH: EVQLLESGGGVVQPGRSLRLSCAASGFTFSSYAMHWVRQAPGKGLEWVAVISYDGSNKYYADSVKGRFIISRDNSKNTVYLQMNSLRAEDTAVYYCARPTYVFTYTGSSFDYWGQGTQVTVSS VL: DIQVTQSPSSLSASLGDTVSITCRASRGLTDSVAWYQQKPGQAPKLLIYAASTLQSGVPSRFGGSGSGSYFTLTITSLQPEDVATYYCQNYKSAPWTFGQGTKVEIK
// result 1.11
